# Assay notes: In vivo area under curve (AUC) was determined in murine septicemia at dose of 50 mg/kg
# Type: ADME, organism-based
# Design: dose 50 mg/kg
# Measurement conditions: mouse
Outcome measure: AUC (µg·h/mL)
Enter your answer as a number in µg·h/mL; do not include the unit.

Please look up its AUC: CCCCCCCCCC(=O)N[C@@H](Cc1c[nH]c2ccccc12)C(=O)N[C@H](CC(N)=O)C(=O)N[C@@H](CC(=O)O)C(=O)N[C@@H]1C(=O)NCC(=O)N[C@@H](CCCNC(=O)c2c(N)ccc3ccccc23)C(=O)N[C@@H](CC(=O)O)C(=O)N[C@H](C)C(=O)N[C@@H](CC(=O)O)C(=O)NCC(=O)N[C@H](CO)C(=O)N[C@@H]([C@H](C)CC(=O)O)C(=O)N[C@@H](CC(=O)c2ccccc2N)C(=O)O[C@@H]1C
2820

Consider the compound shown here: CCCCCCCCCC(=O)N[C@@H](Cc1c[nH]c2ccccc12)C(=O)N[C@H](CC(N)=O)C(=O)N[C@@H](CC(=O)O)C(=O)N[C@@H]1C(=O)NCC(=O)N[C@@H](CCCNC(=O)[C@@H](N)CCCCN)C(=O)N[C@@H](CC(=O)O)C(=O)N[C@H](C)C(=O)N[C@@H](CC(=O)O)C(=O)NCC(=O)N[C@H](CO)C(=O)N[C@@H]([C@H](C)CC(=O)O)C(=O)N[C@@H](CC(=O)c2ccccc2N)C(=O)O[C@@H]1C What is its recorded AUC?
589

What value of measured AUC is listed for CCCCCCCCCC(=O)N[C@@H](Cc1c[nH]c2ccccc12)C(=O)N[C@H](CC(N)=O)C(=O)N[C@@H](CC(=O)O)C(=O)N[C@@H]1C(=O)NCC(=O)N[C@@H](CCCNC(=O)C(N)CCc2c[nH]c3ccccc23)C(=O)N[C@@H](CC(=O)O)C(=O)N[C@H](C)C(=O)N[C@@H](CC(=O)O)C(=O)NCC(=O)N[C@H](CO)C(=O)N[C@@H]([C@H](C)CC(=O)O)C(=O)N[C@@H](CC(=O)c2ccccc2N)C(=O)O[C@@H]1C (some centres undefined) ?
936

Which AUC value is on record for CCCCCCCCCC(=O)N[C@@H](Cc1c[nH]c2ccccc12)C(=O)N[C@H](CC(N)=O)C(=O)N[C@@H](CC(=O)O)C(=O)N[C@@H]1C(=O)NCC(=O)N[C@@H](CCCN)C(=O)N[C@@H](CC(=O)O)C(=O)N[C@H](C)C(=O)N[C@@H](CC(=O)O)C(=O)NCC(=O)N[C@H](CO)C(=O)N[C@@H]([C@H](C)CC(=O)O)C(=O)N[C@@H](CC(=O)c2ccccc2N)C(=O)O[C@@H]1C ?
489

###

# Tested on: Enterococcus faecalis
# Assay notes: Antibacterial activity against Enterococcus faecalis ATCC 49452
# Type: functional
Kindly supply the reported log10(MIC) values for the records listed here.
Answers are given as log10 of MIC in µg/mL.

// lookup log10(MIC) for CCCCCCCCCC(=O)N[C@@H](Cc1c[nH]c2ccccc12)C(=O)N[C@H](CC(N)=O)C(=O)N[C@@H](CC(=O)O)C(=O)N[C@@H]1C(=O)NCC(=O)N[C@@H](CCCNC(=O)c2cc(OC)ccc2N)C(=O)N[C@@H](CC(=O)O)C(=O)N[C@H](C)C(=O)N[C@@H](CC(=O)O)C(=O)NCC(=O)N[C@H](CO)C(=O)N[C@@H]([C@H](C)CC(=O)O)C(=O)N[C@@H](CC(=O)c2ccccc2N)C(=O)O[C@@H]1C
1.00

Requested field: log10(MIC). Item: CCCCCCCCCC(=O)N[C@@H](Cc1c[nH]c2ccccc12)C(=O)N[C@H](CC(N)=O)C(=O)N[C@@H](CC(=O)O)C(=O)N[C@@H]1C(=O)NCC(=O)N[C@@H](CCCNC(=O)c2cc(C(=O)O)ccc2N)C(=O)N[C@@H](CC(=O)O)C(=O)N[C@H](C)C(=O)N[C@@H](CC(=O)O)C(=O)NCC(=O)N[C@H](CO)C(=O)N[C@@H]([C@H](C)CC(=O)O)C(=O)N[C@@H](CC(=O)c2ccccc2N)C(=O)O[C@@H]1C
1.10

Using the record for CCCCCCCCCC(=O)N[C@@H](Cc1c[nH]c2ccccc12)C(=O)N[C@H](CC(N)=O)C(=O)N[C@@H](CC(=O)O)C(=O)N[C@@H]1C(=O)NCC(=O)N[C@@H](CCCNC(=O)c2cc(O)ccc2N)C(=O)N[C@@H](CC(=O)O)C(=O)N[C@H](C)C(=O)N[C@@H](CC(=O)O)C(=O)NCC(=O)N[C@H](CO)C(=O)N[C@@H]([C@H](C)CC(=O)O)C(=O)N[C@@H](CC(=O)c2ccccc2N)C(=O)O[C@@H]1C , report its log10(MIC).
1.00

Return reported log10(MIC); argument: CCCCCCCCCC(=O)N[C@@H](Cc1c[nH]c2ccccc12)C(=O)N[C@H](CC(N)=O)C(=O)N[C@@H](CC(=O)O)C(=O)N[C@@H]1C(=O)NCC(=O)N[C@@H](CCCNC(=O)c2ccccc2SC)C(=O)N[C@@H](CC(=O)O)C(=O)N[C@H](C)C(=O)N[C@@H](CC(=O)O)C(=O)NCC(=O)N[C@H](CO)C(=O)N[C@@H]([C@H](C)CC(=O)O)C(=O)N[C@@H](CC(=O)c2ccccc2N)C(=O)O[C@@H]1C
1.40

GET /values?readout=log10(MIC)&item= CCCCCCCCCC(=O)N[C@@H](Cc1c[nH]c2ccccc12)C(=O)N[C@H](CC(N)=O)C(=O)N[C@@H](CC(=O)O)C(=O)N[C@@H]1C(=O)NCC(=O)N[C@@H](CCCNC(=O)C(N)CCc2c[nH]c3ccccc23)C(=O)N[C@@H](CC(=O)O)C(=O)N[C@H](C)C(=O)N[C@@H](CC(=O)O)C(=O)NCC(=O)N[C@H](CO)C(=O)N[C@@H]([C@H](C)CC(=O)O)C(=O)N[C@@H](CC(=O)c2ccccc2N)C(=O)O[C@@H]1C (stereo not given in full)
0.49

Which value of log10(MIC) has been reported for CCCCCCCCCC(=O)N[C@@H](Cc1c[nH]c2ccccc12)C(=O)N[C@H](CC(N)=O)C(=O)N[C@@H](CC(=O)O)C(=O)N[C@@H]1C(=O)NCC(=O)N[C@@H](CCCN)C(=O)N[C@@H](CC(=O)O)C(=O)N[C@H](C)C(=O)N[C@@H](CC(=O)O)C(=O)NCC(=O)N[C@H](CO)C(=O)N[C@@H]([C@H](C)CC(=O)O)C(=O)N[C@@H](CC(=O)c2ccccc2N)C(=O)O[C@@H]1C in the records?
0.19

Which value of log10(MIC) has been reported for CCCCCCCCCC(=O)N[C@@H](Cc1c[nH]c2ccccc12)C(=O)N[C@H](CC(N)=O)C(=O)N[C@@H](CC(=O)O)C(=O)N[C@@H]1C(=O)NCC(=O)N[C@@H](CCCNC(=O)c2ccccc2I)C(=O)N[C@@H](CC(=O)O)C(=O)N[C@H](C)C(=O)N[C@@H](CC(=O)O)C(=O)NCC(=O)N[C@H](CO)C(=O)N[C@@H]([C@H](C)CC(=O)O)C(=O)N[C@@H](CC(=O)c2ccccc2N)C(=O)O[C@@H]1C in the records?
1.10

Report log10(MIC) for CCCCCCCCCC(=O)N[C@@H](Cc1c[nH]c2ccccc12)C(=O)N[C@H](CC(N)=O)C(=O)N[C@@H](CCO)C(=O)N[C@@H]1C(=O)NCC(=O)N[C@@H](CCCNC(=O)c2c(N)cccc2F)C(=O)N[C@@H](CC(=O)O)C(=O)N[C@H](C)C(=O)N[C@@H](CC(=O)O)C(=O)NCC(=O)N[C@H](CO)C(=O)N[C@@H]([C@H](C)CC(=O)O)C(=O)N[C@@H](CC(=O)c2ccccc2N)C(=O)O[C@@H]1C please.
0.49

Which log10(MIC) value belongs to CCCCCCCCCC(=O)N[C@@H](Cc1c[nH]c2ccccc12)C(=O)N[C@@H](CC(N)=O)C(=O)N[C@@H](CC(=O)O)C(=O)N[C@@H]1C(=O)NCC(=O)N[C@@H](CCCNC(=O)C(N)Cc2c[nH]c3ccc(OC)cc23)C(=O)N[C@@H](CC(=O)O)C(=O)N[C@H](C)C(=O)N[C@@H](CC(=O)O)C(=O)NCC(=O)N[C@H](CO)C(=O)N[C@@H]([C@H](C)CC(=O)O)C(=O)N[C@@H](CC(=O)c2ccccc2N)C(=O)O[C@@H]1C (stereo not given in full) ?
1.40

Look up log10(MIC) for this molecule: CCCCCCCCCC(=O)N[C@@H](Cc1c[nH]c2ccccc12)C(=O)N[C@H](CC(N)=O)C(=O)N[C@@H](CC(=O)O)C(=O)N[C@@H]1C(=O)NCC(=O)N[C@@H](CCCNC(=O)c2cccc(OC)c2N)C(=O)N[C@@H](CC(=O)O)C(=O)N[C@H](C)C(=O)N[C@@H](CC(=O)O)C(=O)NCC(=O)N[C@H](CO)C(=O)N[C@@H]([C@H](C)CC(=O)O)C(=O)N[C@@H](CC(=O)c2ccccc2N)C(=O)O[C@@H]1C
1.00
